Tested on: NF-kB luciferase reporter cells, IL-1b + dexamethasone, 18 h
EXPERIMENT NOTES: GR-specific modulators of NF-kB trans-repression, confirmation, cell-based, luciferase, IL-1B plus dexamethasone (AID 686955)
MEASUREMENT CONTEXT: at 1 µM
Active and inactive are the calls of the source.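 How the source made its calls: active means compounds that shift the dex/IL-1 ratio, either lowering it activators or doubling it inhibitors, at 1 µM (some results past the limit were not filed as active); inactive means the rest.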
The compounds listed here are annotated with their normalized assay II/I ratio.

Worked cases, answers included:
COc1cccc(-n2ncc3c(N/N=C/c4ccc(S(C)(=O)=O)cc4)ncnc32)c1 = 1.18 (inactive)
Cn1cc(C2=C(c3ccccc3[N+](=O)[O-])C(=O)NC2=O)c2ccccc21 = 2.39
COc1cccc(-n2ncc3c(N/N=C/c4ccncc4)ncnc32)c1 = 1.47 (inactive)
Cc1[nH]nc2c1N=C(c1ccccc1F)c1cc(C#N)ccc1N2 = 1.87 (inactive)
O=C(Nc1n[nH]c2nc(-c3ccc(O)cc3)c(Br)cc12)C1CC1 = 2.27
Cn1cc(C2=C(c3cccc(OCC(O)CO)c3)C(=O)NC2=O)c2ccccc21 (centres undefined) = 1.68 (inactive)
Cn1cc(C2=C(c3cccc(NCC(O)CO)c3)C(=O)NC2=O)c2cc(Cl)ccc21 (centres undefined) = 1.93 (inactive)
O=C(NC1NNC2NNC(c3cccnc3)CC21)C1CC1 (centres undefined) = 1.91 (inactive)

Here is the next item to consider.
Respond only with normalized assay II/I ratio recorded for COc1ccc(O)c(C(=O)c2ccc(C(=O)O[C@H]3CCCNC[C@@H]3NC(=O)c3ccncc3)cc2)c1F 0.93 (inactive)
